The origin of these recorded values is the supplement of paper PMC10567573.

B1: SOAT1 (parent)
chain: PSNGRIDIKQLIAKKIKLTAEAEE

# Variants of: B1
# TEST_METHOD_NOTES: protein stability index of a GFP-peptide fusion (GPS, HEK-293T) (PSI 1-6); higher = more stable;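 also: lentivirally expressed fusions sorted by FACS into six bins by GFP to DsRed ratio, PSI derived from sequencing read proportions per bin multiplied by bin number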
# STATED_CONDITIONS: c terminus: a fixed tail appended
Recorded protein stability index by entry

| SEQUENCE_VARIANT | protein stability index |
| --- | --- |
| Q10P | 3.88 |
| E21R | 2.95 |
| Q10H | 2.57 |
| R5Y | 3.81 |
| I8C | 4.06 |
| T19L | 2.15 |
| L18W | 2.9 |
| K9N | 3.66 |
| L18Y | 3.13 |
| T19W | 2.21 |
| G4N | 3.76 |
| A13W | 2.83 |
| K14R | 3.22 |
| S2L | 3.09 |
| K17M | 3.1 |
| R5S | 3.75 |
| L11D | 4.04 |
| E21D | 3.43 |
| A22T | 2.82 |
| E23Q | 2.35 |
| T19N | 3.29 |
| I6M | 2.56 |
